// data source = the Human Domainome abundance scans (Beltran et al. 2025)

B1: Ankyrin-1, residues 1405 to 1484; numbered along this chain, P16157 (parent)
chain: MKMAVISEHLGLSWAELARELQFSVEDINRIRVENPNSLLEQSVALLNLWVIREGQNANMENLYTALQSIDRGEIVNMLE

- Variants of: B1
- assay.name: abundance fitness (aPCA) (normalised: wild type 0, dead -1); higher = more abundant; growth selection in yeast, the domain comes from the species named
- cond: Homo sapiens
Each entry gets not fulfilled if its abundance fitness stays under -0.5, and fulfilled if its abundance fitness is -0.5 or above.

Examples with answers:
MKMAVISEHLGLSWAELARELQFSVEDINRIRVENPNSLLEQSVALLNLWVIREGQPANMENLYTALQSIDRGEIVNMLE | fulfilled
MKMAVISEHLGLSWAELARELQFSVEDINRIRVENPNSLLEQSVALLNLAVIREGQNANMENLYTALQSIDRGEIVNMLE | not fulfilled
MKMAVISEHLGLSWAELARELQFSVEDINRIRVENPNSLLEQSQALLNLWVIREGQNANMENLYTALQSIDRGEIVNMLE | fulfilled
MKMAVISEHLGLSWAELARELQFSVEDINRIRVENPNSLLEQSVALLILWVIREGQNANMENLYTALQSIDRGEIVNMLE | not fulfilled
MKMAVISEHLGLSWAELARELQFSVEDINRIRVENPNSLLEQSVAILNLWVIREGQNANMENLYTALQSIDRGEIVNMLE | fulfilled

INPUT: Record MKMAVISEHLGLSWAELARELQFSVEGINRIRVENPNSLLEQSVALLNLWVIREGQNANMENLYTALQSIDRGEIVNMLE ; criterion: abundance fitness no lower than -0.5. Met?
OUTPUT: not fulfilled

INPUT: Form field: abundance fitness at least -0.5? Entry: MKMAVISEHLGLSWAELARELQFSKEDINRIRVENPNSLLEQSVALLNLWVIREGQNANMENLYTALQSIDRGEIVNMLE
OUTPUT: fulfilled

INPUT: Does the reported abundance fitness for MKMAVISEHLGLSWAELARELQFSVEDINRIRVENPNSLLEQSVALLNLWVIREGQNANMENLYTALQSIDEGEIVNMLE fall at or above the -0.5 mark?
OUTPUT: not fulfilled

INPUT: Hi, just wondering whether MKMAVISEHLGLSWAELARELQFSVEDINSIRVENPNSLLEQSVALLNLWVIREGQNANMENLYTALQSIDRGEIVNMLE shows abundance fitness of -0.5 or higher.
OUTPUT: fulfilled

INPUT: Tell me whether abundance fitness is at least -0.5 here: MKMAVISEHLGLSWAELARELQFSVEDINRIRVENPNSLLEQSVALLNLWVIREGQNANMENLYTALQSIDRGEDVNMLE
OUTPUT: not fulfilled

INPUT: Check the entry MKMAVISEHLGLSWAELARELQFSVEDINRIRVENPNSLLEQSVALLNLWVIREGQNFNMENLYTALQSIDRGEIVNMLE : does abundance fitness equal or exceed -0.5?
OUTPUT: fulfilled

INPUT: Does the reported abundance fitness for MKMAVISEHLGLSWAELARELQFSVEDINRIRVENPNSLLEQSVALLNLWVIREGQNANMENLYTALQSIDRFEIVNMLE fall at or above the -0.5 mark?
OUTPUT: fulfilled

INPUT: Can MKMAVISEHLGLSWAELARELQFSVEDINRIRVENPNSLLEQSVALLGLWVIREGQNANMENLYTALQSIDRGEIVNMLE be said to have abundance fitness at or above -0.5?
OUTPUT: fulfilled

INPUT: Could you please find out whether MKMAVISEHLGLSWAELARELQFSVEDINRIRVENPNSLLEQSVALLNLWVIREGQNAPMENLYTALQSIDRGEIVNMLE has abundance fitness that meets -0.5 or exceeds it?
OUTPUT: fulfilled

INPUT: Item MKMAVISEHLGLSWAELARELQFSVEDINRIRVENPGSLLEQSVALLNLWVIREGQNANMENLYTALQSIDRGEIVNMLE with abundance fitness of -0.5 or above?
OUTPUT: fulfilled

INPUT: Is abundance fitness at least -0.5? Consider MKMAVISEHLGLSWAELARELQFSVEDINRIRVENPNSLLEQSVALLNLWVIREGQNANWENLYTALQSIDRGEIVNMLE
OUTPUT: fulfilled

INPUT: Confirm if abundance fitness reported for the variant MKMAVISEHLGLSWAELARELQFSVEDINRIRVENPNSLLEQSVALLNLWVIREGQNANMENLYTALQSIDRGERVNMLE is -0.5 or above.
OUTPUT: not fulfilled

INPUT: Quick check: does MKMAVISEHLGLSWAELARELQFSVEDIIRIRVENPNSLLEQSVALLNLWVIREGQNANMENLYTALQSIDRGEIVNMLE have abundance fitness greater than or equal to -0.5?
OUTPUT: fulfilled

INPUT: Test whether the variant MKMAVISEHLGLSWAELARELQFSVEDINRIRVENPNSLLYQSVALLNLWVIREGQNANMENLYTALQSIDRGEIVNMLE records abundance fitness of -0.5 or higher.
OUTPUT: fulfilled
